Tested on: Colletotrichum lagenarium (COLLLA)
Assay: Activity towards plant pathogenic fungi, growth inhibition in microtiter plates
Format: cell-based
Settings: Colletotrichum orbiculare; 50% inhibition of growth; 25° C., 72 h, NepheloStar plate reader; read-out: EC50 COLLLA
outcome.measure: log10 EC50 (log10 of the value in µg/mL)

{"molecule": "CCC(C)CCOCC#CCn1nc(-c2ccc(Cl)cn2)ccc1=O (centres unmarked) [drawing 100]", "log10 EC50": 0.06}
{"molecule": "CCC#CCn1nc(-c2ncc(Cl)cc2Cl)ccc1=O [drawing 111]", "log10 EC50": 1.13}
{"molecule": "CCC#CCn1nc(-c2ccc(F)c(F)n2)ccc1=O", "log10 EC50": -0.74}
{"molecule": "CCC#CCN1N=C(c2cccc(Cl)n2)CCC1=O [drawing 103]", "log10 EC50": 0.53}
{"molecule": "CCC#CCN1N=C(c2ncc(Cl)cc2Cl)CCC1=O [drawing 110]", "log10 EC50": 0.90}

* * *

# IC50 values compiled below
Target: microsomal Δ-9 fatty acid desaturase (Saccharomyces cerevisiae, UniProt P21147)
Sequence (P21147 whole entry, stated change not applied): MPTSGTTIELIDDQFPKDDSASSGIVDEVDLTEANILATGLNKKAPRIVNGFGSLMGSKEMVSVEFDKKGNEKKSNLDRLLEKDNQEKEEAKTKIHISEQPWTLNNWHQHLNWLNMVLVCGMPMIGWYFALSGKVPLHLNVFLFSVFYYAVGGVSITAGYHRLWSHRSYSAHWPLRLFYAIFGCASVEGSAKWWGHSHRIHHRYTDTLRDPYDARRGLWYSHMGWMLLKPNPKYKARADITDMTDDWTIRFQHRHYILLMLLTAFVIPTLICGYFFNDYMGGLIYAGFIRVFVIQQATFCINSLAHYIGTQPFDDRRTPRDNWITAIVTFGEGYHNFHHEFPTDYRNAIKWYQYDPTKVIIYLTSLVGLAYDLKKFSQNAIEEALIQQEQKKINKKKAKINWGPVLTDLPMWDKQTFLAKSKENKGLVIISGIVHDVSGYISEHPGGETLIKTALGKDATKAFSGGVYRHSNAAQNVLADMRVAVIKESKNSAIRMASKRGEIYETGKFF
Experiment: Inhibition of Δ-9 fatty acid desaturase (desaturation of 14C-palmitoyl-CoA to 14C-palmitoleic acid)
Conditions: I50, concentration inhibiting production of palmitoleic acid by 50%; yeast microsomes, 30° C., 5 min

{"molecule": "CCC#CCN1N=C(c2ncc(Cl)cc2Cl)CCC1=O [drawing 88]", "test.target": "microsomal Δ-9 fatty acid desaturase (Saccharomyces cerevisiae, UniProt P21147)", "IC50": "> 129000 nM"}
{"molecule": "CCCCOCCOCC#CCn1nc(-c2ccc(Cl)cn2)ccc1=O [drawing 77]", "test.target": "microsomal Δ-9 fatty acid desaturase (Saccharomyces cerevisiae, UniProt P21147)", "IC50": "176 nM"}
{"molecule": "CCC#CCn1nc(-c2ncc(Br)cn2)ccc1=O", "test.target": "microsomal Δ-9 fatty acid desaturase (Saccharomyces cerevisiae, UniProt P21147)", "IC50": "3790 nM"}
{"molecule": "O=c1ccc(-c2ccc(Cl)cn2)nn1CC#CC1CC1 [drawing 82]", "test.target": "microsomal Δ-9 fatty acid desaturase (Saccharomyces cerevisiae, UniProt P21147)", "IC50": "472 nM"}
{"molecule": "C=CC#CCn1nc(-c2ccc(Cl)cn2)ccc1=O", "test.target": "microsomal Δ-9 fatty acid desaturase (Saccharomyces cerevisiae, UniProt P21147)", "IC50": "58.9 nM"}
{"molecule": "CCCCCCCOCC#CCn1nc(-c2ccc(Cl)cn2)ccc1=O [drawing 80]", "test.target": "microsomal Δ-9 fatty acid desaturase (Saccharomyces cerevisiae, UniProt P21147)", "IC50": "72.2 nM"}
{"molecule": "CCC#CCN1N=C(c2nc(Cl)c(Cl)cc2Cl)CCC1=O [drawing 91]", "test.target": "microsomal Δ-9 fatty acid desaturase (Saccharomyces cerevisiae, UniProt P21147)", "IC50": "> 116000 nM"}
{"molecule": "CCCCOCCC#CCn1nc(-c2ccc(Cl)cn2)ccc1=O", "test.target": "microsomal Δ-9 fatty acid desaturase (Saccharomyces cerevisiae, UniProt P21147)", "IC50": "52 nM"}
{"molecule": "CCC#CCn1nc(-c2ccc(Cl)cn2)ccc1=O [drawing 70]", "test.target": "microsomal Δ-9 fatty acid desaturase (Saccharomyces cerevisiae, UniProt P21147)", "IC50": "121 nM"}
{"molecule": "CCC(C)CCOCC#CCn1nc(-c2ccc(Cl)cn2)ccc1=O (stereo not shown) [drawing 79]", "test.target": "microsomal Δ-9 fatty acid desaturase (Saccharomyces cerevisiae, UniProt P21147)", "IC50": "422 nM"}
{"molecule": "CC(C)(C)C#C/C=C/Cn1nc(-c2ccc(Cl)cn2)ccc1=O [drawing 90]", "test.target": "microsomal Δ-9 fatty acid desaturase (Saccharomyces cerevisiae, UniProt P21147)", "IC50": "> 122000 nM"}
{"molecule": "CCC#CCN1N=C(c2cccc(Cl)n2)CCC1=O [drawing 83]", "test.target": "microsomal Δ-9 fatty acid desaturase (Saccharomyces cerevisiae, UniProt P21147)", "IC50": "> 145000 nM"}
{"molecule": "CCCOCCOCC#CCn1nc(-c2ccc(Cl)cn2)ccc1=O", "test.target": "microsomal Δ-9 fatty acid desaturase (Saccharomyces cerevisiae, UniProt P21147)", "IC50": "108 nM"}
{"molecule": "CCCCCOCC#CCn1nc(-c2ccc(Cl)cn2)ccc1=O [drawing 72]", "test.target": "microsomal Δ-9 fatty acid desaturase (Saccharomyces cerevisiae, UniProt P21147)", "IC50": "23.1 nM"}
{"molecule": "CCC#CCn1nc(-c2ccc(Br)cn2)ccc1=O", "test.target": "microsomal Δ-9 fatty acid desaturase (Saccharomyces cerevisiae, UniProt P21147)", "IC50": "< 123 nM"}
{"molecule": "CCC#CCn1nc(-c2ccc(Cl)c(F)n2)ccc1=O [drawing 92]", "test.target": "microsomal Δ-9 fatty acid desaturase (Saccharomyces cerevisiae, UniProt P21147)", "IC50": "99.4 nM"}
{"molecule": "CCCCCCCOCC#CCn1nc(-c2ccc(Cl)cn2)ccc1=O [drawing 76]", "test.target": "microsomal Δ-9 fatty acid desaturase (Saccharomyces cerevisiae, UniProt P21147)", "IC50": "45.5 nM"}
{"molecule": "CCCCOCC#CCn1nc(-c2ccc(Cl)cn2)ccc1=O", "test.target": "microsomal Δ-9 fatty acid desaturase (Saccharomyces cerevisiae, UniProt P21147)", "IC50": "27.1 nM"}
{"molecule": "CCCCCCCC#CCn1nc(-c2ccc(Cl)cn2)ccc1=O", "test.target": "microsomal Δ-9 fatty acid desaturase (Saccharomyces cerevisiae, UniProt P21147)", "IC50": "78.5 nM"}
{"molecule": "CCC#CCn1nc(-c2ncc(Cl)cc2Cl)ccc1=O [drawing 89]", "test.target": "microsomal Δ-9 fatty acid desaturase (Saccharomyces cerevisiae, UniProt P21147)", "IC50": "> 130000 nM"}
{"molecule": "CCC#CCn1nc(-c2ncccc2Cl)ccc1=O [drawing 87]", "test.target": "microsomal Δ-9 fatty acid desaturase (Saccharomyces cerevisiae, UniProt P21147)", "IC50": "> 146000 nM"}
{"molecule": "CCCCCCOCC#CCn1nc(-c2ncc(Br)cn2)ccc1=O", "test.target": "microsomal Δ-9 fatty acid desaturase (Saccharomyces cerevisiae, UniProt P21147)", "IC50": "39.5 nM"}
